Cited source for all entries: patent US12077503B2

Measured plant injury at 500 g/ha by item
- System: corn (Zea mays)
- assay: Test A postemergence
- Type: in vivo
- measurement_parameters: Zea mays, post-emergence, 240 h, 500 g ai/ha, postemergence; 0 to 100 scale, 0 is no effect, 100 is complete control; read-out: Corn plant response rating
Report field: quantity (unit follows the number).

These solved cases illustrate the format of a correct answer.
molecule	assayed_target	recorded_result
Cc1cccc([C@H]2CN(C)C(=O)[C@@H]2C(=O)Nc2ccc(F)c(F)c2F)c1	corn (Zea mays)	80%
COc1cc([C@H]2CN(C)C(=O)[C@@H]2C(=O)Nc2ccccc2SC)cc(OC)c1OC	corn (Zea mays)	0%
Cc1ccc([C@H]2CN(C)C(=O)[C@]2(O)C(=O)Nc2cccc(F)c2F)cc1 (racemic)	corn (Zea mays)	20%
Cc1cccc([C@H]2CN(C)C(=O)[C@@H]2C(=O)Nc2cccc(F)c2C)c1	corn (Zea mays)	80%
CN1C[C@H](c2ccc3c(c2)OCO3)[C@@H](C(=O)Nc2cccc(F)c2F)C1=O	corn (Zea mays)	90%
COc1cc(C(F)(F)F)ccc1[C@H]1CNC(=O)[C@@H]1C(=O)Nc1cccc(F)c1F	corn (Zea mays)	70%

Q. Notebook: pull reported plant injury at 500 g/ha for corn (Zea mays), entry "CSc1ccccc1NC(=O)[C@H]1C(=O)NC[C@@H]1c1cc(F)c(F)c(F)c1"
A. 0%

Q. # iterate: CN1C[C@H](c2ccc(F)c(F)c2)[C@@H](C(=S)Nc2ccccc2F)C1=O (racemic)
A. 0%

Q. # iterate: "Cc1nc([C@H]2CNC(=O)[C@@H]2C(=O)Nc2cccc(F)c2F)cs1"
A. 0%

Q. # iterate: "Cc1c(F)cccc1NC(=O)[C@H]1C(=O)NC[C@@H]1c1cc(F)c(F)c(F)c1"
A. 60%
